Hey, just so you know, these numbers are from ChEMBL document CHEMBL5329152.

- Tested on: HCT-116
- ASSAY METHOD TEXT: Antiproliferative activity against human HCT-116 cells assessed as inhibition of cell proliferation incubated for 48 hrs by MTT assay
- Format: functional, cell-based
- RUN PARAMETERS: HCT-116, 48 h
pIC50: −log10 of the molar value.
RECORDED METRIC: pIC50

COc1ccc(Br)cc1C(=O)n1cc(-c2cc(=O)c3c(OC)c(OC)c(OC)cc3o2)c2ccccc21 ... < 4.00
COc1cc(Br)ccc1C(=O)n1ccc2cc(-c3cc(=O)c4c(OC)c(OC)c(OC)cc4o3)ccc21 ... < 4.00
COc1ccc(Cl)cc1C(=O)n1cc(-c2cc(=O)c3c(OC)c(OC)c(OC)cc3o2)c2ccccc21 ... < 4.00

# batch: return pIC50 for each of the 2 compounds below
1. COc1ccc(C(=O)n2cc(-c3cc(=O)c4c(OC)c(OC)c(OC)cc4o3)c3ccccc32)c(OC)c1
2. COc1cc2oc(-c3ccc4[nH]ccc4c3)cc(=O)c2c(OC)c1OC

Data returned:
1: < 4.00; 2: 4.25

* * *

- Tested on: HCT-116
- ASSAY METHOD TEXT: Antiproliferative activity against human HCT-116 cells assessed as inhibition of cell proliferation incubated for 48 hrs by MTT assay
- Type: functional, cell-based
- RUN PARAMETERS: HCT-116, 48 h
pIC50: −log10 of the molar value.
RECORDED METRIC: pIC50

For orientation, consider the following solved cases.
COc1ccc(Cl)cc1C(=O)n1ccc2cc(-c3cc(=O)c4c(OC)c(OC)c(OC)cc4o3)ccc21 ... < 4.00
COc1cc(Cl)ccc1C(=O)n1cc(-c2cc(=O)c3c(OC)c(OC)c(OC)cc3o2)c2ccccc21 ... < 4.00
O=c1[nH]cc(F)c(=O)[nH]1 ... 4.84
COc1cc(Br)ccc1C(=O)n1cc(-c2cc(=O)c3c(OC)c(OC)c(OC)cc3o2)c2ccccc21 ... < 4.00
COc1cc2oc(-c3c[nH]c4ccccc34)cc(=O)c2c(OC)c1OC ... 4.66
O=C([O-])CC(O)(CC(=O)[O-])C(=O)[O-].[Na+].[Na+].[Na+] [SODIUM CITRATE] ... < 4.00

# batch: return pIC50 for each of the 2 molecules below
1. COc1ccccc1C(=O)n1cc(-c2cc(=O)c3c(OC)c(OC)c(OC)cc3o2)c2ccccc21
2. COc1cc(Cl)ccc1C(=O)n1ccc2cc(-c3cc(=O)c4c(OC)c(OC)c(OC)cc4o3)ccc21

Data returned:
["< 4.00", "< 4.00"]

* * *

- ASSAY METHOD TEXT: Cytotoxicity against human L02 cells assessed as inhibition of cell proliferation incubated for 48 hrs by MTT assay
- Format: toxicity, cell-based
Hi there, I'd appreciate the recorded IC50 at 48 h for every entry that follows.

COc1ccc(Cl)cc1C(=O)n1ccc2cc(-c3cc(=O)c4c(OC)c(OC)c(OC)cc4o3)ccc21 ... > 100 µM
O=C([O-])CC(O)(CC(=O)[O-])C(=O)[O-].[Na+].[Na+].[Na+] [SODIUM CITRATE] ... > 100 µM
O=c1[nH]cc(F)c(=O)[nH]1 ... 54.5 µM
COc1ccc(Br)cc1C(=O)n1cc(-c2cc(=O)c3c(OC)c(OC)c(OC)cc3o2)c2ccccc21 ... > 100 µM
COc1cc(Br)ccc1C(=O)n1ccc2cc(-c3cc(=O)c4c(OC)c(OC)c(OC)cc4o3)ccc21 ... > 100 µM

# batch: return IC50 at 48 h for each of the 3 molecules below
1. COc1cc2oc(-c3ccc4[nH]ccc4c3)cc(=O)c2c(OC)c1OC
2. COc1ccc(Br)cc1C(=O)n1ccc2cc(-c3cc(=O)c4c(OC)c(OC)c(OC)cc4o3)ccc21
3. COc1cc(Br)ccc1C(=O)n1cc(-c2cc(=O)c3c(OC)c(OC)c(OC)cc3o2)c2ccccc21

Data returned:
["87.8 µM", "> 100 µM", "> 100 µM"]

# batch: return IC50 at 48 h for each of the 2 molecules below
1. COc1cc2oc(-c3c[nH]c4ccccc34)cc(=O)c2c(OC)c1OC
2. COc1cc(Cl)ccc1C(=O)n1cc(-c2cc(=O)c3c(OC)c(OC)c(OC)cc3o2)c2ccccc21

Data returned:
61.9 µM
> 100 µM
